# SYSTEM_NAME: hAT1R (Homo sapiens, UniProt P30556)
# Sequence (P30556 1-359): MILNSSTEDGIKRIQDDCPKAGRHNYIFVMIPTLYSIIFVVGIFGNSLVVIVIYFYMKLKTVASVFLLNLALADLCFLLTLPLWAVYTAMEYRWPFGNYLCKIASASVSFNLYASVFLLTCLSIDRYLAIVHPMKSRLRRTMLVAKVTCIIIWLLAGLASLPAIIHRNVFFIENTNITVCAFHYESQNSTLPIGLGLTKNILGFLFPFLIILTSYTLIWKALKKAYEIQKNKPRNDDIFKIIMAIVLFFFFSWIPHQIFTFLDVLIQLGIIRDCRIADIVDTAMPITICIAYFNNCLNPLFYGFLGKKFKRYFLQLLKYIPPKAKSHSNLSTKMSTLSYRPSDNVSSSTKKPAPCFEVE
# ASSAY_SUMMARY: BRET β-arrestin2 biosensor assay, higher receptor expression (hAT1R 5 ng/well), HEK293 cells
# Format: cell-based
Give BRET β-Arrestin2 High AT1R Expression Ymax (%) for every item shown.
Give just the numeric value; % need not be written.

Kindly note the recorded BRET β-Arrestin2 High AT1R Expression Ymax (%) for CCc1nc2c(C)cc(C)nc2n1Cc1ccc(-c2cc(C(=O)c3ccccc3)ccc2-c2nnn[nH]2)cc1 , which is 88.2

Form: molecule = CCc1nc2c(C)cc(C)nc2n1Cc1ccc(-c2cc(-c3cccc(C)c3)ccc2C(=O)O)nc1 ; BRET β-Arrestin2 High AT1R Expression Ymax (%) = 79.1

BRET β-Arrestin2 High AT1R Expression Ymax (%) for CCCc1nc(CC)c(C(=O)O)n1Cc1ccc(-c2cc(-c3ccccc3)ccc2-c2noc(=O)[nH]2)cc1 is 92.1

The reported BRET β-Arrestin2 High AT1R Expression Ymax (%) of the molecule CCc1nc2c(C)cc(C)nc2n1Cc1ccc(-c2cc(-c3cc(C)cc(C)c3)ccc2-c2nn[nH]n2)cc1 was 87.8

In plain terms, CCCc1nc(CC)c(C(N)=O)n1Cc1ccc(-c2cc(-c3ccccc3)ccc2-c2nn[nH]n2)cc1 has a documented BRET β-Arrestin2 High AT1R Expression Ymax (%) of 91.0

For CCCCC(=O)N(Cc1ccc(-c2cc(-c3cccc(OC)n3)ccc2-c2nn[nH]n2)cc1)C1(C(=O)O)CCCCC1 the molecule record lists BRET β-Arrestin2 High AT1R Expression Ymax (%) as 79.9

The reported value for CCCCc1nc(Cl)c(C(=O)O)n1Cc1ccc(-c2cc(-c3c[nH]c4ccccc34)ccc2-c2nn[nH]n2)cc1 in terms of BRET β-Arrestin2 High AT1R Expression Ymax (%) is 78.3

// field: BRET β-Arrestin2 High AT1R Expression Ymax (%); key: CCc1nc2c(C)cc(C)nc2n1Cc1ccc(-c2cc(-c3ccccc3C(C)C)ccc2-c2nn[nH]n2)cc1 ; value = 79.6

* * *

Please go through the items and note down their pEC50.
# SYSTEM_NAME: hAT1R (Homo sapiens)
# ASSAY_SUMMARY: BRET Gq biosensor assay, agonist response, HEK293 cells
# Assay type: cell-based
# SETUP_CONDITIONS: section of the 42nd table directly before the BRET P63 section
Formally, pEC50 is defined as -log10 of the concentration c, with c in mol/L.

# molecule CCCc1nc(CC)c(C(N)=O)n1Cc1ccc(-c2cc(-c3ccccc3)ccc2-c2nn[nH]n2)c(C)c1 ; its pEC50 = 7.07

CCCCC(=O)N(Cc1ccc(-c2cc(-c3ccccn3)ccc2-c2nn[nH]n2)cc1)[C@H](C(=O)O)C(C)C has a reported pEC50 of 7.11

molecule CCCCc1ncc(C(=O)NCCC)n1Cc1ccc(-c2cc(-c3ccccc3)ccc2-c2nn[nH]n2)cc1 , pEC50 observed: 7.13

For reference, reported pEC50 for CCCCc1ncc(C(=O)N2CCC2)n1Cc1ccc(-c2cc(-c3ccccc3)ccc2-c2nn[nH]n2)cc1 stands at 7.14

// CCCCc1ncc(C(=O)NCCO)n1Cc1ccc(-c2cc(-c3ccccc3)ccc2-c2nn[nH]n2)cc1 : pEC50 value = 7.05

pEC50 for CCCc1nc(CC)c(C(=O)O)n1Cc1ccc(-c2cc(-c3ccccc3)ccc2-c2nn[nH]n2)c(C)c1 is 6.98

Given item CCOc1nc2cccc(C(=O)O)c2n1Cc1ccc(-c2cc(-c3cc(N(C)C)ccn3)ccc2-c2noc(=O)[nH]2)cc1 , the value recorded as its pEC50 is 7.08
